Target: T1, Siglec-7-ECD-Fc (human, UniProt Q9Y286 19-353)
T1 construct: also called recombinant Siglec-7-Fc fusion protein; Siglec-7-Fc; not shown: human Fc (huFc)
T1 sequence (Q9Y286 19-353): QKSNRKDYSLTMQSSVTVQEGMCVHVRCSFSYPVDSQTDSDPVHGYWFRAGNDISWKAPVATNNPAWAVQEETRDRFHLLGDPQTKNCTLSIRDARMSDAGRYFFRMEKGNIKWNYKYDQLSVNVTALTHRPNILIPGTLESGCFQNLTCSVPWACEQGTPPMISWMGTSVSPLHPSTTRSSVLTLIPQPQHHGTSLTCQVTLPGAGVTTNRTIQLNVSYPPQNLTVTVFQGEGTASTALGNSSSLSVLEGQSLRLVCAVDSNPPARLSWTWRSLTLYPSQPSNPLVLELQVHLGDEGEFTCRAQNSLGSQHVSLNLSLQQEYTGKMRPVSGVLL
Assay: ligand blocking on cells, flow cytometry: antibody dilutions pre-mixed with 10 nM Siglec-7-ECD-Fc, then binding of Siglec-7-ECD-Fc to Siglec-7 ligands on A375 melanoma cells
Endpoint: pIC50
The meaning of pIC50 here: minus log10 of the concentration in molar units.

IN: Param item = 2G12 (antibody, V domains shown) VH: QVQLQQPGAELVKPGASVKLSCKASGYTFTSYWMQWVKQRPGQGLEWIGEIDPSVSYTEYNQKFKGKATLTVDTSSSTAYMQLSSLTSEDSAVYFCARWSKDYYGMDYWGQGTSVTVSS VL: DIVLTQSHKFMSTSVGDRVTITCKASQDVSTAVAWYQQKPGQSPKLLIYWTSTRHTGVPDRFTGSGSGTDHTLTISSVQAEDLALYYCHQQYSTPPTFGGGTKLEIK ; retrieve measured pIC50.
OUT: 7.70

IN: Param item = monoclonal antibody 16H11 (antibody, V domains shown, Parental antibody; The Methods capture antibodies on anti-mouse sensors) VH: QVQLHQSGAELVKPGASVKISCKGSGYDFSNFWMNWVKQRPGKGLEWIGQIYPGDGEIKYNGKFKGKATLTADESSSTAYIHLSSLTSEDSAVYFCARDDYLRAMDYWGQGTSVTVSS VL: DIQMTQSPASLSASVGETVTITCRASGNIHNYLAWFQQKQGKSPHFLVYSAKALADGVPSRFSGSGSGTQYSLKINSLQPEDFGTYYCQHFWSSPYTFGGGTKLEIK ; retrieve measured pIC50.
OUT: 8.13

IN: Param item = 9D4 (antibody) heavy chain variable region: QVTLKESGPGILQPSQTLSLTCSFSGFSLSTFGMGVGWIRQPSGKGLEWLAHIWWDDDKYYHPALKSRLTISKDTSNNQVFLKIANVDTAETATFYCARVERGYPLDHWGQGTTLRVSS light chain variable region: DIVLTQSPASLAVSLGQRATISCRASQSVSSSSYSYMHWYQQKPGQPPKLLIKYASNLKSGVPARFSGSGSGTDFTLTIHPVEEEDTATYYCQHSWEIPPTFGGGTKLEIK ; retrieve measured pIC50.
OUT: 8.85
